Listed below: IC50 values for each entry.
# systemTested: GIRK1/4 (Homo sapiens (Human), UniProt P48544+P48549)
# Sequence (P48549 whole entry): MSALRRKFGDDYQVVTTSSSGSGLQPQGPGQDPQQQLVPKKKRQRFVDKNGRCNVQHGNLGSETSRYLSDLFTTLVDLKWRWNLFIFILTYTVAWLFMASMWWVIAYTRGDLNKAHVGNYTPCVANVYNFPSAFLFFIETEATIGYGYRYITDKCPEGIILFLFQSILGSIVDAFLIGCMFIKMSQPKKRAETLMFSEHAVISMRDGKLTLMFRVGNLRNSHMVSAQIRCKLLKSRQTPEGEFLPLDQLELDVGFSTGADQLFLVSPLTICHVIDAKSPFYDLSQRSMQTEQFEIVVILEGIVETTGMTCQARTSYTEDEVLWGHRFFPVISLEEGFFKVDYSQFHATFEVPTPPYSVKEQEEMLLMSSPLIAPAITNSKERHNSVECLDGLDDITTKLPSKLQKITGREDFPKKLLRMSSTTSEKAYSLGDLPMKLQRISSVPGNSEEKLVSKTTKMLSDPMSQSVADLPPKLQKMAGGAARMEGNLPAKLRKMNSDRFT
# Sequence (P48544 whole entry): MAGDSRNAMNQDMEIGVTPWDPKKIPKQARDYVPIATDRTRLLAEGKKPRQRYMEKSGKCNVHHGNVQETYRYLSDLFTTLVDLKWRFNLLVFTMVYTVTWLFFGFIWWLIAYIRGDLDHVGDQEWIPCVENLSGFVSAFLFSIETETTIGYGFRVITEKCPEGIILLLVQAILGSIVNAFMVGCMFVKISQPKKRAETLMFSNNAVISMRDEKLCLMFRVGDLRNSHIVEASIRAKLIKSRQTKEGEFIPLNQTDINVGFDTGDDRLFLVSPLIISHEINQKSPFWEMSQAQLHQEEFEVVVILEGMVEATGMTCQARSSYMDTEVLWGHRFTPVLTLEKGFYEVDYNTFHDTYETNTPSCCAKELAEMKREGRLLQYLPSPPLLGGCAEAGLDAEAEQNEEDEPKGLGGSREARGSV
# runDescription: GIRK1/4 inhibition, Quattro (IonWorks) population patch clamp, inward potassium current in GIRK 1/4 HEK293 stable cells (test assay No. 1)
# reportedConditions: percentage of current inhibition normalized to DMSO-only control
# Procedure: The activity of a compound according to the present invention can be assessed by the following in vitro method. • 1. Buffers: • a. External buffer: 10 mM NaCl, 50 mM Na Gluconate, 80 mM K Gluconate, 1.8 mM CaCl2, 1 mM MgCl2, 10 mM HEPES, 10 mM Glucose, pH 7.4; osmolality 300-310 Osm/L. • b. […] IC50 values are calculated by plotting the percentage of current inhibition (normalized to the DMSO-only control) as a function of compound concentration using standard data analysis software.
reportedProperty: IC50 (nM)

molecule: COc1cc2c(c(OCC(O)CO)n1)c(=O)cc(C)n2-c1c(Cl)cccc1Cl (stereo not drawn)
measuredNumber: 234
//
molecule: Cc1cc(=O)c2c(OCCOCCOCCOCCO)ncc(Cl)c2n1-c1c(Cl)cc(F)cc1Cl
measuredNumber: 33
//
molecule: Cc1cc(=O)c2c(OCC(O)CO)ncc(Cl)c2n1-c1c(Cl)cccc1C#N (stereo not drawn)
measuredNumber: 240
//
molecule: Cc1cc(=O)c2c(CC(O)CO)ncc(Cl)c2n1-c1c(Cl)cccc1Cl (stereo not drawn)
measuredNumber: 23
//
molecule: Cc1cc(=O)c2c(-c3cc[nH]n3)cncc2n1-c1c(Cl)cc(C#N)cc1Cl
measuredNumber: 280
//
molecule: Cc1cc(=O)c2c(NCCOCCOCCOCCO)ncc(Cl)c2n1-c1c(Cl)cccc1Cl
measuredNumber: 6
//
molecule: Cc1cc(=O)c2c(OCC(C)(CO)CO)ncc(Cl)c2n1-c1c(Cl)cccc1Cl
measuredNumber: 28
//
molecule: COCc1cc(=O)c2c(OCC(CO)CO)ncc(Cl)c2n1-c1c(Cl)cccc1Cl
measuredNumber: 28
//
molecule: Cc1cc(=O)c2c(Nc3nnn(C)n3)ncc(Cl)c2n1-c1c(Cl)cccc1Cl
measuredNumber: 59
//
molecule: O=c1cc(CO)n(-c2c(Cl)cccc2Cl)c2c(Cl)cnc(OC(CO)CO)c12
measuredNumber: 257
//
molecule: O=c1cc(CO)n(-c2c(Cl)cccc2Cl)c2c(Cl)cnc(OCC3(CO)COC3)c12
measuredNumber: 235
//
molecule: Cc1cc(=O)c2c(N3CCN(CCO)CC3)ncc(Cl)c2n1-c1c(Cl)cc(C#N)cc1Cl
measuredNumber: 146
//
molecule: Cc1cc(=O)c2c(OCC(O)CO)ncc(Cl)c2n1-c1c(Cl)cccc1Cl (stereo not drawn)
measuredNumber: 8
//
molecule: O=c1cc(C(F)F)n(-c2c(Cl)cccc2Cl)c2c(Cl)cnc(OCC(O)CO)c12 (stereo not drawn)
measuredNumber: 13
//
molecule: Cc1cc(=O)c2c(Oc3nnnn3C)ncc(Cl)c2n1-c1c(Cl)cccc1Cl
measuredNumber: 128
//
molecule: Cc1cc(=O)c2c(OCC(O)COCC(O)CO)ncc(Cl)c2n1-c1c(Cl)cccc1Cl (stereo not drawn)
measuredNumber: 173
//
molecule: COCc1cc(=O)c2c(OCC(O)CO)ncc(Cl)c2n1-c1c(Cl)cccc1Cl (stereo not drawn)
measuredNumber: 29
//
molecule: Cc1cc(=O)c2c(OCC(O)C(C)(C)O)ncc(Cl)c2n1-c1c(Cl)cccc1Cl (single isomer, unassigned) [Example 59]
measuredNumber: 14
//
molecule: Cc1cc(=O)c2c(NCCOCCOCCOCCO)ncc(Cl)c2n1-c1c(Cl)cccc1C#N
measuredNumber: 176
//
molecule: O=c1cc(CO)n(-c2c(Cl)cccc2Cl)c2c(Cl)cnc(COC(CO)CO)c12
measuredNumber: 1230
//
molecule: Cc1cc(=O)c2c(OCC(O)CO)ncc(C3CC3)c2n1-c1c(Cl)cccc1Cl (stereo not drawn)
measuredNumber: 73
//
molecule: Cc1cc(=O)c2c(OCCOCCOCCOCCO)ncc(Cl)c2n1-c1c(Cl)cc(F)cc1C#N
measuredNumber: 344
//
molecule: Cc1cc(=O)c2c(NOCCO)ncc(Cl)c2n1-c1c(Cl)cccc1Cl
measuredNumber: 42
//
molecule: Cc1cc(=O)c2c(OCC(O)CO)cncc2n1-c1c(Cl)cc(C#N)cc1Cl (stereo not drawn)
measuredNumber: 1860
//
molecule: Cc1cc(=O)c2c(OCC3COC(C)(C)O3)ncc(Cl)c2n1-c1c(Cl)cc(C#CCN(C)C)cc1Cl (stereo not drawn)
measuredNumber: 46
//
molecule: Cc1cc(=O)c2c(OCC(O)C(C)(C)O)ncc(Cl)c2n1-c1c(Cl)cccc1Cl (single isomer, unassigned) [Example 58]
measuredNumber: 17
//
molecule: CCc1cnc(OCC(O)CO)c2c(=O)cc(C)n(-c3c(Cl)cccc3Cl)c12 (stereo not drawn)
measuredNumber: 115
//
molecule: Cc1cc(=O)c2c(NCC(O)C(=O)NCCO)ncc(Cl)c2n1-c1c(Cl)cccc1Cl (stereo not drawn)
measuredNumber: 60
//
molecule: Cc1cc(=O)c2c(OCCO)ncc(Cl)c2n1-c1c(Cl)cccc1Cl
measuredNumber: 9
//
molecule: Cc1cc(=O)c2c(NCCc3c[nH]cn3)cncc2n1-c1c(Cl)cc(C#N)cc1Cl
measuredNumber: 197
//
molecule: O=c1cc(CO)n(-c2c(Cl)cccc2Cl)c2c(Cl)cnc(CCC(O)CO)c12 (stereo not drawn) [Example 75]
measuredNumber: 214
//
molecule: Cc1cc(=O)c2c(NCCc3c[nH]cn3)ncc(Cl)c2n1-c1c(Cl)cccc1Cl
measuredNumber: 35
//
molecule: O=c1cc(CO)n(-c2c(Cl)cccc2Cl)c2c(Cl)cnc(COCC(O)CO)c12 (stereo not drawn)
measuredNumber: 2260
